Biological target: α-1d adrenoreceptor (Rattus norvegicus, UniProt P23944)
Sequence (P23944 1-561): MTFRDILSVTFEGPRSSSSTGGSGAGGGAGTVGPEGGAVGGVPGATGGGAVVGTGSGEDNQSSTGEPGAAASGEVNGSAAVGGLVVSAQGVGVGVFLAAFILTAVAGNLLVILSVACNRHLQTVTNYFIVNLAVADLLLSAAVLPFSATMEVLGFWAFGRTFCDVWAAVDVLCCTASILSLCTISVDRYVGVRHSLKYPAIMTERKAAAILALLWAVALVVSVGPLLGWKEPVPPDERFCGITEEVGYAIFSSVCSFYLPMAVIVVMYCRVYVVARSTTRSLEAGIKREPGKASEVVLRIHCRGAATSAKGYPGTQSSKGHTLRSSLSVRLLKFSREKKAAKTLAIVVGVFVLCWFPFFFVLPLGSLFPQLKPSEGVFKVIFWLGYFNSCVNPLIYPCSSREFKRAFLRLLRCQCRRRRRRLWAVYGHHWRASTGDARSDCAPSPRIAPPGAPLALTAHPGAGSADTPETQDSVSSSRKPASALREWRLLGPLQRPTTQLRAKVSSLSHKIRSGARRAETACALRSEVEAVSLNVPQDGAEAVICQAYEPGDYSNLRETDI
Assay: biochemical
Assay type: binding
Details: [3H]-prazosin radioligand; cloned receptor in LTK cell membranes; read-out: Radioligand Binding (Ki, nM) 1d (Rat)
Where a name gives a salt, the structure may show the parent alone.
Please assign NO whenever Ki is at or above 1 nM, and YES whenever it is below.

{"columns": ["molecule", "category"],
 "data": [
  ["COc1cccc2c1[C@@H]1CN(CCCCn3c(=O)[nH]c4c(sc5nc(C)ccc54)c3=O)C[C@H]1CO2 [Example 45, hydrochloride]", "YES"],
  ["COc1cccc2c1[C@@H]1CN(CCCCn3c(=O)[nH]c4c(sc5ccc(-c6cccnc6)nc54)c3=O)C[C@@H]1CO2 [Example 56, dihydrochloride]", "NO"],
  ["COc1cccc2c1[C@@H]1CN(CCCCn3c(=O)[nH]c4c(sc5ccccc54)c3=O)C[C@@H]1CO2 [Example 22, hydrochloride]", "YES"],
  ["COc1cccc2c1[C@H]1CN(CCCCn3c(=O)[nH]c4c(sc5c(OC)ccnc54)c3=O)C[C@@H]1CO2 [Example 8, dihydrochloride]", "NO"],
  ["COc1cccc2c1[C@@H]1CCN(CCCCn3c(=O)[nH]c4c(sc5nc(Cl)ccc54)c3=O)C[C@H]1CO2 [Example 102, hydrochloride]", "YES"],
  ["COc1cccc2c1[C@H]1CN(CCCCn3c(=O)[nH]c4c(sc5ncc(Cl)nc54)c3=O)C[C@@H]1CO2 [Example 10, hydrochloride]", "NO"]
]}

* * *

molecular target: α-1a adrenoreceptor (Bos taurus); test: biochemical; type: binding, bovine; details: read-out: Radioligand Binding (Ki, nM) 1a (Bovine)
Sequence (P18130 whole entry): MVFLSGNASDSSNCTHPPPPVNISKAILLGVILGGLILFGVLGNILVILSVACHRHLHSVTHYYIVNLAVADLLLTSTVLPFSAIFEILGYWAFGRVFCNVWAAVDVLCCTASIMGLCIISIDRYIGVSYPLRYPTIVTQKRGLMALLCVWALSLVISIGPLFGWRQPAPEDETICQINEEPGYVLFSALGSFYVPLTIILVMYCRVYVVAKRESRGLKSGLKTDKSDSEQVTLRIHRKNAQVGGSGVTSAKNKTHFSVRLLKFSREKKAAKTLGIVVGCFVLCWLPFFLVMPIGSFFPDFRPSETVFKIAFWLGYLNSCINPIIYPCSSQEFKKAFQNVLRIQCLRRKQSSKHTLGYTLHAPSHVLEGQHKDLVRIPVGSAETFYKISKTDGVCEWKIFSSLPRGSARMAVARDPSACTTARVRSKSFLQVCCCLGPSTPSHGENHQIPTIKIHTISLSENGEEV
Where a name gives a salt, the structure may show the parent alone.
Threshold 2 nM. Ki below it: YES. Ki at it or above: NO.

{"columns": ["molecule", "category"],
 "data": [
  ["COc1cccc2c1OC[C@H]1CN(CCCn3c(=O)[nH]c4c(sc5ccccc54)c3=O)C[C@@H]21.Cl (racemic) [Example 68, hydrochloride]", "NO"],
  ["COc1ccc2c(c1)[C@@H]1CN(CCCn3c(=O)[nH]c4c(sc5ncccc54)c3=O)C[C@@H]1CO2 (racemic) [Example 77, hydrochloride]", "NO"],
  ["COc1cc2[nH]c(=O)n(CCCCN3C[C@@H]4COc5cccc(OC)c5[C@@H]4C3)c(=O)c2cc1OC (racemic) [Example 79, hydrochloride]", "YES"],
  ["COc1cccc2c1[C@H]1CN(CCCCn3c(=O)[nH]c4c(sc5nccnc54)c3=O)C[C@@H]1CO2.Cl.Cl (racemic) [Example 74, dihydrochloride]", "YES"],
  ["COc1cccc2c1[C@H]1CN(CCCCn3c(=O)[nH]c4c(sc5cccnc54)c3=O)C[C@@H]1CO2 (racemic) [Example 72, dihydrochloride]", "YES"],
  ["Cl.O=c1[nH]c2c(sc3ccccc32)c(=O)n1CCN1C[C@@H]2COc3ccccc3[C@@H]2C1 (racemic) [Example 69, hydrochloride]", "YES"],
  ["COc1ccc2c(c1)OC[C@H]1CN(CCCn3c(=O)[nH]c4c(sc5ccccc54)c3=O)C[C@@H]21.Cl (racemic) [Example 64, hydrochloride]", "YES"],
  ["COc1cccc2c1[C@@H]1CN(CCCCn3c(=O)[nH]c4c(sc5cccnc54)c3=O)C[C@@H]1CO2 (racemic) [Example 73, dihydrochloride]", "YES"],
  ["COc1ccc2c(c1)OC[C@H]1CN(CCn3c(=O)[nH]c4c(sc5ccccc54)c3=O)C[C@@H]21.Cl (racemic) [Example 63, hydrochloride]", "NO"]
]}

* * *

Target: α-1B adrenoreceptor (Rattus norvegicus, UniProt P15823)
Construct: from tissue; host or cells: rat spleen
Sequence (P15823 1-515): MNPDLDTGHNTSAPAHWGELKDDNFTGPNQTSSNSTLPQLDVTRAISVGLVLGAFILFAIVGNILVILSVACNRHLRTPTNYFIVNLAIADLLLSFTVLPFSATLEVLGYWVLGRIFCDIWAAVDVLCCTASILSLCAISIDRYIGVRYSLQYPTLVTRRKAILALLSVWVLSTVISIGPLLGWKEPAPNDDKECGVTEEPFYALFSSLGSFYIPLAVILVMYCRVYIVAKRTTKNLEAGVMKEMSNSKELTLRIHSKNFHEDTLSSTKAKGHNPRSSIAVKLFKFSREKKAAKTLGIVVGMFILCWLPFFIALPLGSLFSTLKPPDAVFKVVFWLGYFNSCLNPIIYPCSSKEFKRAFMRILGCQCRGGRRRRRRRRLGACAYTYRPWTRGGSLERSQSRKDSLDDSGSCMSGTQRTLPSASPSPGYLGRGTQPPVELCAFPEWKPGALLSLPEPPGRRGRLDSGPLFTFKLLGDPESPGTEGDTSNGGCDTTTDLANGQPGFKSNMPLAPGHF
Test: cell-based
Details: phenylephrine-induced contraction; Schild plot; read-out: In Vitro Characterization (pA2) Rat Spleen (converted)
Counter-ions that a name gives are not always drawn.
quantity: Kb (nM)

{"columns": ["molecule", "assayed target", "quantitative result"],
 "data": [
  ["COc1cccc2c1[C@@H]1CN(CCCCn3c(=O)[nH]c4c(sc5nc(Cl)ccc54)c3=O)C[C@H]1CO2 [Example 47, hydrochloride]", "α-1B adrenoreceptor (Rattus norvegicus, UniProt P15823)", 11.2],
  ["COc1cccc2c1[C@@H]1CN(CCCCn3c(=O)[nH]c4c(sc5nccc(OC)c54)c3=O)C[C@@H]1CO2 [Example 36, hydrochloride]", "α-1B adrenoreceptor (Rattus norvegicus, UniProt P15823)", 8.13],
  ["COc1cccc2c1[C@@H]1CN(CCCCn3c(=O)[nH]c4c(sc5ncc(-c6ccccc6)nc54)c3=O)C[C@@H]1CO2 [Example 39, hydrochloride]", "α-1B adrenoreceptor (Rattus norvegicus, UniProt P15823)", 148],
  ["COc1cccc2c1[C@@H]1CN(CCCCn3c(=O)[nH]c4c(sc5cc(Cl)cnc54)c3=O)C[C@@H]1CO2 [Example 38, hydrochloride]", "α-1B adrenoreceptor (Rattus norvegicus, UniProt P15823)", 19.5],
  ["COc1cccc2c1[C@@H]1CN(CCCCn3c(=O)[nH]c4c(sc5c(Cl)nccc54)c3=O)C[C@@H]1CO2", "α-1B adrenoreceptor (Rattus norvegicus, UniProt P15823)", 63.1],
  ["COc1cccc2c1[C@@H]1CCN(CCCCn3c(=O)[nH]c4c(sc5cccnc54)c3=O)C[C@H]1CO2 [Example 95, dihydrochloride]", "α-1B adrenoreceptor (Rattus norvegicus, UniProt P15823)", 19.1]
]}

* * *

Biological target: α-1d adrenoreceptor (Rattus norvegicus, UniProt P23944)
Sequence (P23944 1-561): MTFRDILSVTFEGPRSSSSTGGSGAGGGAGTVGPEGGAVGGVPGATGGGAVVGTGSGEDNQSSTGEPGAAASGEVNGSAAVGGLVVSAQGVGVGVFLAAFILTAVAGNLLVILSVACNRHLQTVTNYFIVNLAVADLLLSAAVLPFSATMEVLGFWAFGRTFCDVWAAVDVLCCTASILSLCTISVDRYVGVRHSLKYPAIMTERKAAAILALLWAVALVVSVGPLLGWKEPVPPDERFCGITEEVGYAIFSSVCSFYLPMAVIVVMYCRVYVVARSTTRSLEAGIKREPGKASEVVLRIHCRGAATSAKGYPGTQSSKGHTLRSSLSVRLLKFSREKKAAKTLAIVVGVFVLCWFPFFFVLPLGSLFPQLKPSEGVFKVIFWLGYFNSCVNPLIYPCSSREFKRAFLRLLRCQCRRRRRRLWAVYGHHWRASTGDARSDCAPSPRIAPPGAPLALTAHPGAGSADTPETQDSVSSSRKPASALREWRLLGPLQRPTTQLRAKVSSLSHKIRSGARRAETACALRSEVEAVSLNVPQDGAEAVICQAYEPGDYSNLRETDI
Experiment: biochemical
Type: binding
Conditions: [3H]-prazosin radioligand; cloned receptor in LTK cell membranes; read-out: Radioligand Binding (Ki, nM) 1d (Rat)
Counter-ions that a name gives are not always drawn.
Label TRUE when Ki < 0.3 nM; otherwise FALSE.

{"columns": ["molecule", "category"],
 "data": [
  ["COc1cccc2c1[C@H]1CCN(CCCCn3c(=O)[nH]c4c(sc5cccnc54)c3=O)C[C@@H]1CO2 [Example 94, dihydrochloride]", "FALSE"],
  ["COc1cccc2c1[C@@H]1CCN(CCCCn3c(=O)[nH]c4c(sc5ncc(Cl)nc54)c3=O)C[C@H]1CO2 [Example 97, dihydrochloride]", "TRUE"],
  ["COc1cccc2c1[C@@H]1CN(CCCCn3c(=O)[nH]c4c(sc5c(Cl)nccc54)c3=O)C[C@@H]1CO2", "FALSE"],
  ["COc1cccc2c1[C@H]1CN(CCCCn3c(=O)[nH]c4c(sc5cccnc54)c3=O)C[C@@H]1CO2 [Example 4, hydrochloride]", "FALSE"],
  ["COc1cccc2c1[C@@H]1CN(CCCCn3c(=O)[nH]c4c(sc5ncc(Cl)nc54)c3=O)C[C@@H]1CO2 [Example 16, hydrochloride]", "FALSE"],
  ["COc1cccc2c1[C@@H]1CN(CCCCn3c(=O)[nH]c4c(sc5ccncc54)c3=O)C[C@@H]1CO2 [Example 28, dihydrochloride]", "TRUE"],
  ["COc1cccc2c1[C@@H]1CCN(CCCn3c(=O)[nH]c4c(sc5cccnc54)c3=O)C[C@H]1CO2 [Example 92, dihydrochloride]", "FALSE"],
  ["COc1cccc2c1[C@@H]1CN(CCCCn3c(=O)[nH]c4c(sc5nccnc54)c3=O)C[C@H]1CO2 [Example 14, dihydrochloride]", "TRUE"],
  ["COc1cccc2c1[C@@H]1CN(CCCCn3c(=O)[nH]c4c(sc5nc(-c6ccccc6)cnc54)c3=O)C[C@@H]1CO2 [Example 40, hydrochloride]", "FALSE"],
  ["COc1cccc2c1[C@H]1CCN(CCCn3c(=O)[nH]c4c(sc5cccnc54)c3=O)C[C@@H]1CO2 [Example 93, dihydrochloride]", "FALSE"],
  ["COc1ccc2sc3c(=O)n(CCCCN4CC[C@H]5c6c(OC)cccc6OC[C@@H]5C4)c(=O)[nH]c3c2n1 [Example 98, hydrochloride]", "FALSE"],
  ["COc1ccc(O)c2c1[C@@H]1CN(CCCCn3c(=O)[nH]c4c(sc5ncc(-c6ccccc6)nc54)c3=O)C[C@@H]1CO2", "FALSE"],
  ["COc1cccc2c1[C@H]1CN(CCCCn3c(=O)[nH]c4c(sc5ncc(-c6ccccc6)nc54)c3=O)C[C@@H]1CO2 [Example 9, hydrochloride]", "FALSE"],
  ["COc1cccc2c1[C@@H]1CCN(CCCCn3c(=O)[nH]c4c(sc5cccnc54)c3=O)C[C@H]1CO2 [Example 95, dihydrochloride]", "FALSE"],
  ["COc1ccc2sc3c(=O)n(CCCCN4C[C@@H]5COc6cccc(OC)c6[C@@H]5C4)c(=O)[nH]c3c2n1 [Example 30, hydrochloride]", "TRUE"],
  ["COc1ccc2sc3c(=O)n(CCCCN4C[C@@H]5COc6cccc(OC)c6[C@H]5C4)c(=O)[nH]c3c2n1 [Example 7, hydrochloride]", "FALSE"],
  ["COc1cccc2c1[C@@H]1CN(CCCCn3c(=O)[nH]c4c(sc5cnccc54)c3=O)C[C@H]1CO2 [Example 42, dihydrochloride]", "TRUE"],
  ["COc1cccc2c1[C@@H]1CN(CCCCn3c(=O)[nH]c4c(sc5nc(Cl)ccc54)c3=O)C[C@@H]1CO2 [Example 32, hydrochloride]", "FALSE"],
  ["COc1cccc2c1[C@@H]1CN(CCCCn3c(=O)[nH]c4c(sc5nccc(OC)c54)c3=O)C[C@@H]1CO2 [Example 36, hydrochloride]", "FALSE"],
  ["COc1cccc2c1[C@@H]1CN(CCCCn3c(=O)[nH]c4c(sc5nc(Cl)ccc54)c3=O)C[C@H]1CO2 [Example 47, hydrochloride]", "TRUE"],
  ["COc1cccc2c1[C@@H]1CN(CCCCn3c(=O)[nH]c4c(sc5ccc(OC(C)C)nc54)c3=O)C[C@H]1CO2 [Example 51, hydrochloride]", "FALSE"],
  ["COc1cccc2c1[C@H]1CCN(CCCCn3c(=O)[nH]c4c(sc5ncc(Cl)nc54)c3=O)C[C@@H]1CO2 [Example 96, dihydrochloride]", "FALSE"],
  ["COc1cccc2c1[C@@H]1CN(CCCCn3c(=O)[nH]c4c(sc5ccccc54)c3=O)C[C@H]1CO2 [Example 21, hydrochloride]", "TRUE"],
  ["COc1cccc2c1[C@@H]1CN(CCCCn3c(=O)[nH]c4c(sc5ncc(-c6ccccc6)nc54)c3=O)C[C@H]1CO2 [Example 50, hydrochloride]", "FALSE"]
]}
